- assayedSystem: Histone deacetylase
- assayOverview: Inhibition of HDAC in human HeLa cell nuclear extract using Fluor de Lys as substrate incubated with compound for 30 mins by microtiter-plate reading flourimeter analysis
- Format: protein assay
endpointName: IC50 (nM)
Unit nM implied. Number only.

Please tell me the measured IC50 for "O=C(/C=C/c1cccn(Cc2ccncc2)c1=O)NO" ; system: Histone deacetylase. 420

Please tell me the measured IC50 for "CCc1ccc(CCCn2cccc(/C=C/C(=O)NO)c2=O)cc1" ; system: Histone deacetylase. 310

---
Please tell me the measured IC50 for "O=C(/C=C/c1cccn(Cc2cccc(Br)c2)c1=O)NO" ; system: Histone deacetylase. 380
